tested on: DU-145 prostate; assay: NCI tumour cell line growth inhibition, 48 h
Measurement label: TGI (µM)
Report the figure in µM without appending any unit label.

[Q] What value of TGI has been recorded for this entry: CC(/C=C/C(O)=C1/C(=O)CNC1=O)=C\[C@@H](C)[C@H]1O[C@@]2(C)O[C@H](C(=O)[C@@H]3O[C@@]32C)[C@@H]1C
[A] 40.1

[Q] Look up TGI: O=[N+]([O-])c1cc([As](Br)c2ccc(O)c([N+](=O)[O-])c2)ccc1O
[A] 4.59

[Q] // returns reported TGI for input COc1ccc2c(c1)C(=O)/C(=C/c1cccc(OCC(=O)Nc3nc(C)c(C)s3)c1)O2
[A] 0.67

[Q] Requested read-out: TGI. Entry: Cc1ccc(S(=O)C[C@](NC(=O)OCc2ccccc2)(Sc2ccccc2)C(F)F)cc1 (some centres undefined)
[A] 45.6

[Q] // lookup TGI for CC(C)(C)[Si](C)(C)OC1[C@@H](CNC(N)=O)O[C@@H](n2cnc3c(NC(=O)Nc4ccccc4)ncnc32)[C@H]1O[Si](C)(C)C(C)(C)C (some centres undefined)
[A] 5.59

[Q] Name the reported TGI value associated with the molecule O=[N+]([O-])C(/C(Cl)=C(\Cl)Br)=C(/Cl)SCc1ccccc1
[A] 25.7

[Q] Bench note: what TGI did C/C(=C(/c1ccccc1)c1ccc(OCC(O)CNCCN2CCOCC2)cc1)c1ccccc1 (centres undefined) show?
[A] 15.7

[Q] Can you look up the measured TGI of O=C(/C=C1\Sc2ccccc2N=C1CC(=O)c1ccccc1)c1ccccc1 for me?
[A] 89.1

[Q] Dear colleague, I am looking for the recorded TGI of the following molecule: C=C1C(=O)O[C@H]2[C@H]1CC/C(Cn1cc(-c3ccc(N)cc3)nn1)=C\CC[C@@]1(C)O[C@@H]21
[A] 14.1
